# tgt: PI3Kα H1047R (T47D cells) (Homo sapiens, UniProt P42336, H1047R)
# Construct: endogenous in cells; host or cells: T47D cells
# Sequence (P42336 whole entry H1047R): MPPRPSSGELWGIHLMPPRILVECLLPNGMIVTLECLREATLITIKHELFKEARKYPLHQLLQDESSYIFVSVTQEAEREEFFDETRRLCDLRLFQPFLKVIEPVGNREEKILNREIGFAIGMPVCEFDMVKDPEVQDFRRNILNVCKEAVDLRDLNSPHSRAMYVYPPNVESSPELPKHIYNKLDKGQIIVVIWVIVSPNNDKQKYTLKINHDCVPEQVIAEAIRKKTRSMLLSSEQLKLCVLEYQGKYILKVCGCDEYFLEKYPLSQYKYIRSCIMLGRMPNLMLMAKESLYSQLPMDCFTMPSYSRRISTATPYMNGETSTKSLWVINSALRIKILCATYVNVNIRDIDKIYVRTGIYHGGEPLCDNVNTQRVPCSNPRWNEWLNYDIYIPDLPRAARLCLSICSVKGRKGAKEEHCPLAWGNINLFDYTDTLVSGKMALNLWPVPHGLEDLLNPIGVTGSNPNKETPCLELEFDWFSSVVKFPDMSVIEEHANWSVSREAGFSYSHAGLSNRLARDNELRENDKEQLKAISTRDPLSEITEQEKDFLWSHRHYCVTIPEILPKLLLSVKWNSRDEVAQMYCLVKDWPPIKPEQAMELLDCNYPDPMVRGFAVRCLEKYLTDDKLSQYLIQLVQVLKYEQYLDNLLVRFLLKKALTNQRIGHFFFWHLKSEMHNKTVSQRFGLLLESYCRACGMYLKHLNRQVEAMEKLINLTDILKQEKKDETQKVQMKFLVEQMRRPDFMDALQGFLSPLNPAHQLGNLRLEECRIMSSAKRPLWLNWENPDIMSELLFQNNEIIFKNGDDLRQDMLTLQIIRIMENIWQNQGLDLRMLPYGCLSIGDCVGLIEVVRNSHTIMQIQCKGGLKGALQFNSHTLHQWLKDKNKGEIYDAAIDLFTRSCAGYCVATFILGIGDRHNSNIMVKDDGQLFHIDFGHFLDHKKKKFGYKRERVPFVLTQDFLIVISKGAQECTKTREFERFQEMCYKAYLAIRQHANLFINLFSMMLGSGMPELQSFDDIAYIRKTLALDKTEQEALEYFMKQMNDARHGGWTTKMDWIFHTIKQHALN
# Sequence (P27986 whole entry partner): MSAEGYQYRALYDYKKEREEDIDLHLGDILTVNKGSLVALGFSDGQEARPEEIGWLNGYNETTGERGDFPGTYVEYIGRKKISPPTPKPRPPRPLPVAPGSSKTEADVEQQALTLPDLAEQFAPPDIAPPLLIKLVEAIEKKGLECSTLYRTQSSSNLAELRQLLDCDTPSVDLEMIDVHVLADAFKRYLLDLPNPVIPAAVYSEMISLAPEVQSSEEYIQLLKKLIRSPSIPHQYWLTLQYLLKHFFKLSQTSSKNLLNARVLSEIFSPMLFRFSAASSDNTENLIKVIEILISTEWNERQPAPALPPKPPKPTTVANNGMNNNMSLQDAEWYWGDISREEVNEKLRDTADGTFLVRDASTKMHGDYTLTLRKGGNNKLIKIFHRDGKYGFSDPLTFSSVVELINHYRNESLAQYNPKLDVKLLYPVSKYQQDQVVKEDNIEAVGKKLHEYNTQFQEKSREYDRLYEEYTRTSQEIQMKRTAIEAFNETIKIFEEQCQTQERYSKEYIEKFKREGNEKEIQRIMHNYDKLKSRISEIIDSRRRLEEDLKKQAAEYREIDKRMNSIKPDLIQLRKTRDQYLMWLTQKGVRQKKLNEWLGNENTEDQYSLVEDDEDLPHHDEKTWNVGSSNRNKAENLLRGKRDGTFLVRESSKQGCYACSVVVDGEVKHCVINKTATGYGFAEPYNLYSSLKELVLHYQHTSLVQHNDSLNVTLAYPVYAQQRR
# experimentDescription: PI3Kα cellular assay: pAKT HTRF in T47D cells after EGF stimulation
# Type: cell-based
# settings: selectivity T47D (H1047R) over SKBR3 (WT), pAKT HTRF
Counter-ions that a name gives are not always drawn.
measuredParameter: T47D pAKT S473 HTRF IC50 (H1047R): T47D (H1047R) selectivity over SKBR3 (WT)

Below are worked cases with known answers.
Cc1cc(C(C)Nc2ccccc2C(N)=O)c2nc(-c3ccncc3)cc(=O)n2c1 (stereo not drawn) [Compound 438]: C (C denotes ≤5-fold)
Cc1cc(C(C)Nc2ccccc2C(=O)O)c2nc(-c3ccncc3)c(C)c(=O)n2c1 (stereo not drawn): A (A denotes >20-fold)
Cc1cc([C@H](C)Nc2ccccc2C(=O)O)c2nc(N3C[C@H](C)C[C@H](C)C3)cc(=O)n2c1: C (C denotes ≤5-fold)
Cc1cc([C@H](C)Nc2ccccc2C(=O)O)c2nc(C3CCC(C)(C)CC3)cc(=O)n2c1: C (C denotes ≤5-fold)

Exercise: Reported T47D pAKT S473 HTRF IC50 (H1047R): T47D (H1047R) selectivity over SKBR3 (WT) for Cc1cc([C@@H](C)Nc2cc(F)cc(F)c2)c2nc(N3CCOCC3)cc(=O)n2c1 : what is it?
Solution: C (C denotes ≤5-fold)

Exercise: And Cc1cc([C@@H](C)Nc2cccc3onc(O)c23)c2nc(-c3cccc(F)c3)c(C)c(=O)n2c1 (single isomer, unassigned) ?
Solution: A (A denotes >20-fold)

Exercise: Cc1cc([C@@H](C)Nc2ccccc2C(=O)O)c2nc(Nc3ccc4[nH]c(=O)oc4c3)cc(=O)n2c1 ?
Solution: C (C denotes ≤5-fold)

Exercise: Also, Cc1cc(C(C)Nc2ccccc2C(=O)O)c2nc(-c3cccnc3)cc(=O)n2c1 (stereo not drawn) [Compound 416, trifluoroacetate] please.
Solution: A (A denotes >20-fold)

Exercise: Try CCN1CCN(Cc2ccccc2-c2cc(=O)n3cc(C)cc(C(C)Nc4ccccc4C(=O)O)c3n2)CC1 (stereo not drawn) next.
Solution: C (C denotes ≤5-fold)

Exercise: Next entry: Cc1cc(C(C)NC2=C(CC(=O)O)C=CCC2)c2nc(N3CCSCC3)cc(=O)n2c1 (stereo not drawn)
Solution: C (C denotes ≤5-fold)

Exercise: What do you get for Cc1cc(C(C)Nc2ccccc2C(=O)O)c2nc(N3Cc4ccccc4C3)c(C#N)c(=O)n2c1 (stereo not drawn) ?
Solution: A (A denotes >20-fold)

Exercise: Repeat with Cc1cc(C(C)Nc2ccccc2C(=O)O)c2nc(-c3ccc(CN4CCN(C)CC4)cc3)cc(=O)n2c1 (stereo not drawn)
Solution: C (C denotes ≤5-fold)

Exercise: Also need Cc1cc([C@@H](C)Nc2ccccc2C(=O)O)c2nc(N3CCS(=O)(=O)CC3)cc(=O)n2c1 , thanks.
Solution: C (C denotes ≤5-fold)

Exercise: Follow-up item: Cc1cc([C@@H](C)Nc2ccccc2CC(=O)O)c2nc(N3CCOCC3)cc(=O)n2c1
Solution: C (C denotes ≤5-fold)

Exercise: Next: Cc1cc([C@H](C)Nc2cccc3[nH]c(=O)oc23)c2nc(N3CCOCC3)cc(=O)n2c1
Solution: C (C denotes ≤5-fold)

----------
IC50 overview
# tgt: PI3Kα H1047R (T47D cells) (Homo sapiens, UniProt P42336, H1047R)
# Construct: endogenous in cells; host or cells: T47D cells
# experimentDescription: PI3Kα cellular assay: pAKT HTRF in T47D cells after EGF stimulation
# Type: cell-based
# settings: T47D cells (PI3Kα H1047R), pAKT S473 HTRF, 1 hr compound, 20 ng/ml EGF 10 min

Previously resolved entries follow.
CCc1cc(C(=O)NOC)ccc1-c1cc(=O)n2cc(C)cc([C@H](C)Nc3ccccc3C(=O)O)c2n1 [Compound 504]: > 2000 nM
Cc1cc(C(C)Nc2ccccc2C(=O)O)c2nc(N3CCN(CCC(N)=O)CC3)cc(=O)n2c1 (stereo not shown) [Compound 550]: > 2000 nM
Cc1cc([C@@H](C)Nc2ccnnc2C(=O)O)c2nc(N3CCOCC3)cc(=O)n2c1 [Compound 377]: > 2000 nM

Exercise: # lookup: IC50 of Cc1cc([C@H](C)Nc2ccccc2C(=O)O)c2nc(-c3ccc4c(c3)CC(=O)N4)cc(=O)n2c1 [Compound 478]
Solution: 100 to 500 nM

Exercise: Check Cc1cc(C(C)Nc2cnccc2C(=O)O)c2nc(N3CCOCC3)cc(=O)n2c1 (stereo not shown) [Compound 194] too.
Solution: > 2000 nM

----------
# tgt: PI3Kα H1047R (T47D cells) (Homo sapiens, UniProt P42336, H1047R)
# Construct: endogenous in cells; host or cells: T47D cells
# experimentDescription: PI3Kα cellular assay: pAKT HTRF in T47D cells after EGF stimulation
# Type: cell-based
# settings: T47D cells (PI3Kα H1047R), pAKT S473 HTRF, EGF stimulation
pIC50: −log10 of the molar value.
measuredParameter: pIC50

Example results:
Cc1cc([C@H](C)Nc2ccccc2C(=O)O)c2nc(-c3cc4c(cc3C)CC(N)=N4)cc(=O)n2c1: 5.70 to 6.30
Cc1cc([C@@H](C)Nc2ccccc2C(=O)O)c2nc(-c3cccc(C4CC4)c3)c(C)c(=O)n2c1 (single isomer, unassigned): > 7.00
Cc1cc([C@H](C)Nc2ccccc2S(N)(=O)=O)c2nc(-c3cccc(C#N)c3)c(C)c(=O)n2c1: < 5.70
Cc1cc([C@@H](C)Nc2cccc(CO)c2C(=O)O)c2nc(-c3ccc4c(c3)c(C)nn4C)cc(=O)n2c1: < 5.70
C=C(C)Nc1nn(C)c2ccc(-c3cc(=O)n4cc(C)cc([C@H](C)Nc5ccccc5C(=O)O)c4n3)cc12: 6.30 to 7.00
Cc1cc(C(C)Nc2ccccc2C(=O)O)c2nc(OC3CCCOC3)c(C)c(=O)n2c1 (stereo not shown): 6.30 to 7.00

We next turn to a different molecule, shown below.
Exercise: What pIC50 value was documented for this molecule, CC(=O)N1CCC(c2ccc(-c3nc4c([C@@H](C)Nc5ccccc5C(=O)O)cc(C)cn4c(=O)c3C)cc2)CC1 ?
Solution: 6.30 to 7.00

----------
# tgt: PI3Kα H1047R (T47D cells) (Homo sapiens, UniProt P42336, H1047R)
# Construct: endogenous in cells; host or cells: T47D cells
# experimentDescription: PI3Kα cellular assay: pAKT HTRF in T47D cells after EGF stimulation
# Type: cell-based
# settings: T47D cells (PI3Kα H1047R), pAKT S473 HTRF, 1 hr compound, 20 ng/ml EGF 10 min
pIC50: −log10 of the molar value.
measuredParameter: pIC50

Cc1cc(C(C)Nc2ccccc2C(=O)O)c2nc(N3CCC(C)(O)CC3)cc(=O)n2c1 (centres unmarked): < 5.70
Cc1cc([C@H](C)Nc2ccccc2)c2nc(-c3cc(F)c4c(N)n[nH]c4c3)cc(=O)n2c1: < 5.70
Cc1cc([C@H](C)Nc2ccccc2C(=O)O)c2nc(C3CCC(C)(C)CC3)cc(=O)n2c1: < 5.70
COc1cc(NC(C)c2cc(C)cn3c(=O)cc(N4CCOCC4)nc23)c(C(=O)O)cc1OC (centres unmarked): < 5.70

Here's the next entry for you.
Exercise: Query pIC50 on PI3Kα H1047R (T47D cells) (Homo sapiens, UniProt P42336, H1047R) for CC(Nc1ccccc1C(=O)O)c1cc(C#N)cn2c(=O)cc(N3CCOCC3)nc12 (centres unmarked)
Solution: < 5.70

----------
# tgt: PI3Kα H1047R (T47D cells) (Homo sapiens, UniProt P42336, H1047R)
# Construct: endogenous in cells; host or cells: T47D cells
# experimentDescription: PI3Kα cellular assay: pAKT HTRF in T47D cells after EGF stimulation
# Type: cell-based
# settings: T47D cells (PI3Kα H1047R), pAKT S473 HTRF, EGF stimulation
pIC50: −log10 of the molar value.
measuredParameter: pIC50

The examples below pair each entry with its known result.
Cc1cn2c(=O)c(C)c(-c3cccc(F)c3)nc2c(C(C)Nc2ccccc2C(=O)O)c1C (stereo not shown): > 7.00
CC(=O)N=S(C)(=O)c1ccccc1N[C@@H](C)c1cc(C)cn2c(=O)cc(N3CCOCC3)nc12 (stereo partly shown): 5.70 to 6.30
Cc1cc(C(C)Nc2ccccc2C(=O)O)c2nc(-c3ccc4c(c3)c(C(F)(F)F)nn4C)cc(=O)n2c1 (stereo not shown): 6.30 to 7.00

Exercise: Entry Cc1cc([C@H](C)Nc2ccccc2-c2ccnnc2)c2nc(N3Cc4ccccc4C3)c(C)c(=O)n2c1 [Compound 909] has what pIC50?
Solution: < 5.70

Exercise: Can you check Cc1cc(C(C)Nc2ccccc2S(N)(=O)=O)c2nc(-c3cccc(F)c3)c(C)c(=O)n2c1 (stereo not shown) next?
Solution: 6.30 to 7.00

Exercise: Now give it for Cc1cc([C@@H](C)Nc2ccccc2C(=O)O)c2nc(-c3ccc4c(C)cn(C)c4c3)c(C)c(=O)n2c1 too.
Solution: > 7.00

Exercise: Field entry: Cc1cc([C@@H](C)Nc2ccccc2-c2cc(O)no2)c2nc(-c3cccc(F)c3)c(C)c(=O)n2c1
Solution: < 5.70

Each recorded value in this set is attributed to patent US20260132129A1.
